target or system: T1, SHANK1, Q9Y566
T1 sequence (Q9Y566 658-767, limits assumed, looked up): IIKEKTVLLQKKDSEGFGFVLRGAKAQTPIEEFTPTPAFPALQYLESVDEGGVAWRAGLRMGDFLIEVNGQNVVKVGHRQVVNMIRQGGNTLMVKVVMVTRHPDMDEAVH
test details: holdup assay
Set-up: key: below the threshold = too weak to quantify, mostly under pKd 3.1 to 4
condition summary: plain residues with an end cap or a label only (N-terminal biotin on a linker: ahx)
observable: pKd

> print(dat)
                         binder  reported.value
1   PKMKLNETSF [SHKBP1, Q8TBC3]            4.21
2  ADENEQVSAV [RAPGEF6, Q8TEU7]            3.88
3   YNSFLSVTTV [PDZRN3, Q9UPQ7]            3.66
4    KEYDDELTFF [USH1C, Q9Y6N9]            5.25
5     KDECVIATEV [DLL1, O00548]            3.76
